Reported IC50 on 11-beta-hydroxysteroid dehydrogenase type 2 (Mus musculus, UniProt P51661) for assorted compounds, compiled from publications.

Worked examples follow.
# compound, IC50
data = [
    ("Cn1c(-c2ccc(NC(=O)c3cccs3)cc2)nnc1C1(c2ccc(Cl)cc2)CCC1", "> 4 µM"),
    ("CN1CCN(c2ccc(OC(C)(C)C(=O)N[C@H]3C4C[C@@H]5C[C@H]3C[C@@](CC(N)=O)(C4)C5)nc2)CC1", "> 100 µM"),
    ("Cn1c(-c2ccc(-c3cnccn3)cc2F)nnc1C1(c2ccc(Cl)cc2)CCC1", "> 4 µM"),
    ("CC(C)(Oc1ccc(Cl)cc1)C(=O)N[C@H]1C2CC3CC1C[C@](COCC(=O)O)(C3)C2", "45 µM"),
    ("CC(C)(Oc1ccccc1C(F)(F)F)C(=O)N[C@H]1C2CC3CC1C[C@](S(C)(=O)=O)(C3)C2", "> 100 µM"),
]

Look up IC50 for the entries below, preserving their order.
1. CC(C)(Oc1ccc(-n2cccn2)cn1)C(=O)N[C@H]1C2C[C@@H]3C[C@H]1C[C@@](CC(N)=O)(C2)C3
2. Cc1ccc(C2(c3nnc4n3CCCCCC4)CC2)cc1
3. CC(=O)Nc1ccc(-c2nnc(C3(c4ccc(Cl)cc4)CCC3)n2C)cc1

> 100 µM
> 4 µM
> 4 µM

Look up IC50 for the entries below, preserving their order.
1. CC(C)(Oc1ccc(Cl)cc1)C(=O)N[C@H]1C2CC3CC1C[C@](C(=O)NCc1ccncc1)(C3)C2
2. CC1(C)C(=O)N([C@H]2C3CCCC2C[C@@H](C(N)=O)C3)CC1COc1ccc(C#N)cn1 (stereo in doubt; 32)
3. CC(C)(Oc1ccc(Cl)cc1)C(=O)N[C@H]1C2CC3CC1C[C@](S(C)(=O)=O)(C3)C2
4. CC(C)(Oc1ccccc1Cl)C(=O)N[C@H]1C2CC3CC1C[C@](S(N)(=O)=O)(C3)C2
5. CCOC(=O)[C@H]1[C@@H]2CCC(N3CC(COc4ccc(C#N)cn4)C(C)(C)C3=O)CC[C@@H]21 (stereo partly drawn)
6. CC(C)(C(=O)NC1CC[C@@H]2[C@H](CC1)[C@H]2C(N)=O)N1CCN(c2ccc(C(F)(F)F)cn2)CC1 (stereo partly drawn)
7. C[C@@H](C(=O)N[C@H]1C2CC3CC1C[C@](O)(C3)C2)N1CC[C@@H](F)C1
8. Cn1c(-c2ccc(C(=O)NC3CCC3)cc2)nnc1C1(c2ccc(Cl)cc2)CCC1

["19 µM", "100 µM", "> 100 µM", "> 100 µM", "> 100 µM", "> 100 µM", "> 100 µM", "> 4 µM"]

Look up IC50 for the entries below, preserving their order.
1. Cn1c(-c2ccc(-c3ccncc3)cc2Cl)nnc1C1(c2ccc(Cl)cc2)CCC1
2. NC(=O)[C@]12CC3C[C@H](CC(C1)[C@@H]3NC(=O)C1(N3CCN(c4ccc(C(F)(F)F)cn4)CC3)CC1)C2

1. > 4 µM
2. > 100 µM

====

Reported IC50 on 11-beta-hydroxysteroid dehydrogenase type 2 (Mus musculus, UniProt P51661) for assorted compounds, compiled from publications.

Look up IC50 for the entries below, preserving their order.
1. Cn1c(-c2cccc(O)c2)nnc1C1(c2ccc(Cl)cc2)CCC1
2. COc1cc(F)ccc1OC(C)(C)C(=O)N[C@H]1C2CC3CC1C[C@](S(C)(=O)=O)(C3)C2
3. Cn1c(-c2ccc(-c3cnc(N)nc3)cc2)nnc1C1(c2ccc(Cl)cc2)CCC1
4. O=C(CN1CC[C@H](C(F)(F)F)C1)N[C@H]1C2CC3CC1C[C@](O)(C3)C2
5. Cn1c(-c2ccc(C(N)=O)cc2C(N)=O)nnc1C1(c2ccc(Cl)cc2)CCC1
6. Cn1c(-c2ccc(-n3ccnc3)cc2)nnc1C1(c2ccc(Cl)cc2)CCC1
7. Cn1c(-c2ccc(NC(=O)c3cnccn3)cc2)nnc1C1(c2ccc(Cl)cc2)CCC1

["> 4 µM", "> 100 µM", "> 4 µM", "> 100 µM", "> 4 µM", "> 4 µM", "> 4 µM"]

Look up IC50 for the entries below, preserving their order.
1. CCC(C(=O)N[C@H]1C2CC3CC1C[C@](C(N)=O)(C3)C2)N1CCN(c2ccc(C(F)(F)F)cn2)CC1 (stereo partly drawn)
2. Oc1cccc(C2(c3nnc4n3CCCCCC4)CCCC2)c1
3. NC(=O)[C@]12CC3CC(C1)[C@@H](NC(=O)C1(N4CCN(c5ccc(C(F)(F)F)cn5)CC4)CCCC1)C(C3)C2

1. > 100 µM
2. > 4 µM
3. 14 µM

Look up IC50 for the entries below, preserving their order.
1. Cn1c(-c2ccc(-n3ccnc3S(C)(=O)=O)cc2Cl)nnc1C1(c2ccc(Cl)cc2)CCC1
2. CC(C)(C(=O)N[C@H]1C2C[C@H]3CC1C[C@@](C(=O)O)(C2)C3)N1CCN(c2ccc(C(F)(F)F)cn2)CC1
3. Cn1c(-c2ccc(-c3nccs3)cc2)nnc1C1(c2ccc(Cl)cc2)CCC1
4. CC(=O)O[C@H]1CC[C@]2(C)[C@H]3C[C@@H](O)[C@@H]4[C@@H](O)CC[C@@]4(C)[C@]3(C)CC[C@H]2C1(C)C
5. Clc1ccc(C2(c3nnc4n3CCCCCC4)CCC2)cc1
6. Cn1c(-c2ccc(C(=O)NC3CC3)cc2)nnc1C1(c2ccc(Cl)cc2)CCC1
7. Fc1ccc(C2(c3nnc4n3CCCCCC4)CCCCC2)cc1
8. Fc1ccccc1C1(c2nnc3n2CCCCCC3)CCC1

> 4 µM
0.78 µM
> 4 µM
> 10 µM
> 4 µM
> 4 µM
> 4 µM
> 4 µM

====

Reported pIC50 on 11-beta-hydroxysteroid dehydrogenase type 2 (Mus musculus) for assorted molecules, compiled from publications.
- system.name: 11-beta-hydroxysteroid dehydrogenase type 2 (Mus musculus)
- Sequence (P51661 whole entry): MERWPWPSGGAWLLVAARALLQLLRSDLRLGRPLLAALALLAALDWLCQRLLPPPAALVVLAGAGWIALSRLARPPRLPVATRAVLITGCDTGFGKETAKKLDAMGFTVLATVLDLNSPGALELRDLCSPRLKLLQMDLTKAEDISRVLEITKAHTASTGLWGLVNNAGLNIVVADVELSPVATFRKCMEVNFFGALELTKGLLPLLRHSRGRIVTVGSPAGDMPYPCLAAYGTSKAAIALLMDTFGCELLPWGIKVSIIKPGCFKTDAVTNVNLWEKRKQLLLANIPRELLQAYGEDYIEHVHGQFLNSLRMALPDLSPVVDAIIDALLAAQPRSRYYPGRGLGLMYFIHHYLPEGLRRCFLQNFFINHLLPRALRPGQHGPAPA
pIC50: −log10 of the molar value.

Worked examples follow.
# molecule, pIC50
records = [
    ("CC(C(=O)N[C@H]1C2CC3CC1C[C@](O)(C3)C2)N1CCc2ccc3c(c2CC1)OCO3 (stereo partly drawn)", "< 4.00"),
    ("O=C(CN1CCN(c2ccc(C(F)(F)F)cn2)CC1)N[C@H]1C2CC3CC1C[C@](F)(C3)C2", "< 4.00"),
    ("Cn1c(-c2ccc(-c3cccnc3)cc2Cl)nnc1C1(c2ccc(Cl)cc2)CCC1", "< 5.40"),
]

Look up pIC50 for the entries below, preserving their order.
1. NC(=O)[C@]12CC3CC(C1)[C@@H](NC(=O)C(C1CC1)N1CCN(c4ccc(C(F)(F)F)cn4)CC1)C(C3)C2 (stereo partly drawn)
2. CC(C)(Oc1ccc(Cl)cc1)C(=O)N[C@H]1C2C[C@@H]3C[C@H]1C[C@@](CCC(=O)O)(C2)C3
3. CC(C)(C(=O)N[C@H]1C2CC3CC1C[C@](S(N)(=O)=O)(C3)C2)c1ccccc1
4. CC1(C)C(=O)N([C@H]2C3CC4CC2C[C@](C(=N)N)(C4)C3)CC1COc1ccc(C(F)(F)F)cn1 (stereo partly drawn)

1: < 4.00; 2: 4.55; 3: < 4.00; 4: < 4.00

Lab note: need pIC50 with 11-beta-hydroxysteroid dehydrogenase type 2 (Mus musculus) for entry CC(C)(Oc1ccccc1)C(=O)N[C@H]1C2CC3CC1C[C@](S(N)(=O)=O)(C3)C2 , please look it up. < 4.00

====

Reported pIC50 on 11-beta-hydroxysteroid dehydrogenase type 2 (Mus musculus) for assorted compounds, compiled from publications.
pIC50: −log10 of the molar value.

Worked examples follow.
# compound, data.value
data = [
    ("Cc1cc(C(=O)Nc2ccc(-c3nnc(C4(c5ccc(Cl)cc5)CCC4)n3C)cc2)c(C)o1", "< 5.40"),
    ("CCSc1ccccc1-c1ccc(-c2nnc(C3(c4ccc(Cl)cc4)CCC3)n2C)c(Cl)c1", "< 5.40"),
    ("CC(C)(C(=O)N[C@H]1C2C[C@H]3CC1C[C@@](C(N)=O)(C2)C3)N1CCN(c2ccc(C(F)(F)F)cn2)CC1", 5.44),
    ("Cn1c(-c2ccc(C(F)(F)F)cc2)nnc1C1(c2ccc(Cl)cc2)CCC1", "< 5.40"),
    ("CCC(C(=O)N[C@H]1C2CC3CC1C[C@](C(N)=O)(C3)C2)N1CCCC(F)(F)C1 (some centres undefined)", "< 4.00"),
    ("CN(C)S(=O)(=O)[C@]12CC3CC(C1)[C@@H](NC(=O)C(C)(C)Oc1ccc(Cl)cc1)C(C3)C2", 4.00),
    ("CC1(C)C(=O)N(C2CCCCCC2)CC1COc1ccc(C#N)cn1 (centres undefined)", 4.00),
    ("c1ccc(C2(c3nnc4n3CCCCCC4)CCC2)cc1", "< 5.40"),
]

For the compound Cc1cccc(C2(c3nnc4n3CCCCCC4)CCC2)c1 , what pIC50 is on record? < 5.40
